# System: IGROV1 ovarian
# Method summary: NCI tumour cell line growth inhibition, 48 h
Assay metric: TGI

Some compounds with recorded TGI:
[[record]]
compound = "CN(CC(=O)N(Cc1ccc(C2CCCCC2)cc1)c1ccc(C(=O)O)cc1)S(=O)(=O)c1c(F)c(F)c(F)c(F)c1F"
assay_metric = "TGI"
recorded_result = "4.46 µM"

[[record]]
compound = "COc1ccc(/C(C#N)=C2C=C/C(=N/O)c3ccccc3\\2)cc1"
assay_metric = "TGI"
recorded_result = "17.6 µM"

[[record]]
compound = "CCn1c(SCC(=O)NNC(=S)NC)nc2ccccc2c1=O"
assay_metric = "TGI"
recorded_result = "> 100 µM"

[[record]]
compound = "CC(C)(C)N(Cc1ccc2c(c1)OCO2)C(=O)/C=C\\Sc1ccccc1"
assay_metric = "TGI"
recorded_result = "> 100 µM"

[[record]]
compound = "O=C(CN1C(=O)S/C(=C\\C(Cl)=C\\c2ccccc2)C1=O)NC1C=CS(=O)(=O)C1 (stereo unspecified)"
assay_metric = "TGI"
recorded_result = "4.31 µM"


Hi, could you look up TGI for each item in my list?
1. C=C1C(=O)OC2/C=C(/C)C(OC(C)=O)C/C=C(\C)C(OC(=O)C3(C)OC3C)C(O)C12 (stereo unspecified)
2. C#CCOc1ccc2ncnc(Nc3ccc(NC(=O)C=C)cc3)c2c1
3. COc1cccc(-c2cc(=O)c3ccccc3[nH]2)c1
4. N=c1c2c(=N)n3c(nc2nc2n1-c1ccccc1Sc1ccccc1-2)sc1cc(Cl)ccc13

Reply text:
["> 100 µM", "> 100 µM", "> 100 µM", "35.4 µM"]

---

# System: NCI-H23 lung
# Method summary: NCI tumour cell line growth inhibition, 48 h
What TGI was measured for each of the following?
Numbers only, in µM.

See these solved cases before continuing.
[[record]]
molecule = "CCCCCCCCCCCC[n+]1ccc2ccccc2c1"
recorded_result = 3.09

[[record]]
molecule = "CCc1nc2ccc(NCCN(C)C)c3c(=O)c4ccccc4n1c23"
recorded_result = 3.23

[[record]]
molecule = "CN(CCCNC(=O)CCOCCOCCOCCNC(=O)Cc1ccc2ccc3cccc4ccc1c2c34)CCCNc1cc(-c2ccc3ccccc3c2)nc2ccccc12"
recorded_result = 2.1

[[record]]
molecule = "COc1cc2nc3cc([N+](=O)[O-])ccc3c(NCCNCC(C)(C)O)c2cc1OC"
recorded_result = 3.43

[[record]]
molecule = "CCOC(=O)C1=C(C)N(c2ccc(OC)cc2)C2(O)C=CC(=O)C3=C(O)c4ccccc4C(=O)C312 (configuration not stated)"
recorded_result = 37.4


I have 3 molecules here; please give me TGI for each one.
1. NS(=O)(=O)OCCCCCCCOS(N)(=O)=O
2. COc1ccccc1C[C@@H]1OC2(C=CC(=O)C=C2)O[C@H]1Cc1ccccc1OC
3. O=C(CCc1ccccc1)On1c(-c2ccccc2)nc2ccccc2c1=S

Reply text:
1: 795; 2: 18.9; 3: 28

Please go through the list and note TGI for each molecule.
1. CSC(=Nc1ccccc1)/N=C(\SCc1ccccc1)N(C)C
2. C[C@H]1S[C@H](c2c(Cl)cccc2Cl)N2Cc3ccccc3N=C12

Reply text:
3.32
28.8

Batch request: TGI per item, same order as input.
1. C/C1=C\C=C(\C(C)C)CC/C(C(=O)O)=C\CC/C(C)=C/CC1
2. CN(C)/N=C1\CC(c2ccccc2)C(C#N)(C#N)C1(C#N)C#N (configuration not stated)

Reply text:
42.7
53.1

State recorded TGI for all listed molecules.
1. COc1ccc(N=N/C(C(=O)C(F)(F)F)=C(\O)c2ccc(Cl)cc2)cc1
2. O=C1NC(=NCCCc2ccccc2)S/C1=C\c1ccc2ncccc2c1
3. CN(Cc1cnc2nc(N)nc(N)c2n1)c1ccc(C(=O)NC(CCC(=O)O)C(=O)O)cc1Br (configuration not stated)
4. CC(=O)[O][Hg][c]1c(C)c(C)cc(C)c1C
5. Cc1ccccc1NC(=O)Cc1csc2[n+]1C(=O)/C(=C/c1ccc([N+](=O)[O-])cc1)S2
6. C[Si](C)(C)C1=C([Si](C)(C)C)C(Cl)(Cl)C1=O

Reply text:
54.4
15.8
2.12
3.32
84.3
18.4

For each of the molecules below, note its TGI.
1. CC1=C(C(=O)Nc2ccc(Cl)c(C(=O)OC(C)C)c2)SCCO1
2. O=[N+]([O-])c1cccc(C2CC(c3ccccc3)=Nc3ccccc3S2)c1 (configuration not stated)

Reply text:
1. 96.3
2. 61.8
